assay: Inhibition of human PKA by IMAP assay
Readout type: Ki (nM)
Kindly provide the numeric value in nM only, without the unit symbol.

So what's the measured Ki for this one? `C=CCc1c(C)nc2sc3c(N)ncnc3c2c1C`
1100

---

molecular target: Protein kinase C delta type (Homo sapiens); experiment: Inhibition of human PKCdelta by IMAP assay
Sequence (Q05655 whole entry): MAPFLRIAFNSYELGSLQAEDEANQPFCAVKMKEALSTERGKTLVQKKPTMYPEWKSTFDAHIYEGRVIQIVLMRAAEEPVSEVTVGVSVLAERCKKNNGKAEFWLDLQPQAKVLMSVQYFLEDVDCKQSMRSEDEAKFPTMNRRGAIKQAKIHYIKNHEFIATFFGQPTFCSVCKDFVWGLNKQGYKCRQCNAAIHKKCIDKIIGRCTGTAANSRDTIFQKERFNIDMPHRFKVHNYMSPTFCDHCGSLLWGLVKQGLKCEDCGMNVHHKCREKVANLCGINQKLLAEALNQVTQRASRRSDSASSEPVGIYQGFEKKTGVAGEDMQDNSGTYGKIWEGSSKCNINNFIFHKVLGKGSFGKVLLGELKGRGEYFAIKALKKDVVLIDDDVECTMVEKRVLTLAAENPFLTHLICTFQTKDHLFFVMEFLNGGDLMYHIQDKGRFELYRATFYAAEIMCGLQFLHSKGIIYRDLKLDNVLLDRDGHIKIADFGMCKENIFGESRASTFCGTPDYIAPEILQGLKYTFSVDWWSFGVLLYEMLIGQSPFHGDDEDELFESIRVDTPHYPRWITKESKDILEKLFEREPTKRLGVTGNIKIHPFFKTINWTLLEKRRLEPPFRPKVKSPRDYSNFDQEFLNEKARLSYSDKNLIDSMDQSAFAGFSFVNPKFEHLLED
Readout type: Ki

So what's the measured Ki for this one? `C=CCc1c(C)nc2sc3c(N)ncnc3c2c1C`
> 5 µM

---

biological target: Mitogen-activated protein kinase 1 (Homo sapiens, UniProt P28482); assay: Inhibition of human ERK2 by IMAP assay
Sequence (P28482 whole entry): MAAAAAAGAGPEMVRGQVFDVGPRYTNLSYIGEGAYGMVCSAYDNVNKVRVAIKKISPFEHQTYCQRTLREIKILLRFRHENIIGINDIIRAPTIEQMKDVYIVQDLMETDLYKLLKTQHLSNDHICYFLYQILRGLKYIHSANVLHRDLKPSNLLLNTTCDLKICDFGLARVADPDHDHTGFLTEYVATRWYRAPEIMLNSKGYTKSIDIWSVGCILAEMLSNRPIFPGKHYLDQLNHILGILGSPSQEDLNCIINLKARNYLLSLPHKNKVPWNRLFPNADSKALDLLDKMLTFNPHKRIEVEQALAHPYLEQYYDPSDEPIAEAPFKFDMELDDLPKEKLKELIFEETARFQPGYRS
pKi: −log10 of the molar value.
Readout type: pKi

So what's the measured pKi for this one? `C=CCc1c(C)nc2sc3c(N)ncnc3c2c1C`
< 5.30

---

Biological target: Serine/threonine-protein kinase Sgk1 (Homo sapiens, UniProt O00141)
Sequence (O00141 whole entry): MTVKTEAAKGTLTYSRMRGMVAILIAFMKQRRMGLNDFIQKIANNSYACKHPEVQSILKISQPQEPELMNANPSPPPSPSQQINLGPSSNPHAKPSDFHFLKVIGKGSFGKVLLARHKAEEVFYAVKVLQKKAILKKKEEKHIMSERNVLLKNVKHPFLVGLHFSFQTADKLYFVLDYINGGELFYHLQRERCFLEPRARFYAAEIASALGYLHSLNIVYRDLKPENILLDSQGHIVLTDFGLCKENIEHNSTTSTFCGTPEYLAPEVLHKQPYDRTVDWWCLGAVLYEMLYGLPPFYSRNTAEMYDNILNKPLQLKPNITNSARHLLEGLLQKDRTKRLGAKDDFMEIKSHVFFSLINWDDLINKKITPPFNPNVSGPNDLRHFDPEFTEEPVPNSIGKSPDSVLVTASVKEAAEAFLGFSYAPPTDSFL
Readout type: Ki

So what's the measured Ki for this one? `C=CCc1c(C)nc2sc3c(N)ncnc3c2c1C`
> 5 µM

---

test system: HCT-116; experiment: Cytotoxicity against human HCT116 cells MTT assay; format: functional, cell-based
Readout type: pIC50
Give only the number. pIC50 is defined as minus log10 of concentration in molar units.

So what's the measured pIC50 for this one? `C=CCc1c(C)nc2sc3c(N)ncnc3c2c1C`
5.08

---

target: CDC7/DBF4 (Cell division cycle 7-related protein kinase/Activator of S phase kinase) (Homo sapiens); test: Inhibition of human recombinant Cdc7/Dbf4 by IMAP assay
The entries below are paired with their reported pKi.
Give only the number. pKi is defined as minus log10 of concentration in molar units.

Cc1c2c(nc3sc4c(N)ncnc4c13)CCCC2: 8.70
Cc1nc2sc3c(N)ncnc3c2c(C)c1C: 8.40

So what's the measured pKi for this one? `Cc1c2c(nc3sc4c(N)ncnc4c13)CCC2`
8.30

And `Cc1nc2sc3c(N)ncnc3c2c(C)c1Cc1ccccc1` ?
6.70

And `Nc1ncnc2c1sc1ncc(-c3ccccc3)cc12` ?
6.05

---

molecular target: CDC7/DBF4 (Cell division cycle 7-related protein kinase/Activator of S phase kinase) (Homo sapiens); test: Inhibition of human recombinant Cdc7/Dbf4 by HTRF assay
Readout type: IC50 (µM)
Kindly provide the numeric value in µM only, without the unit symbol.

Known IC50 results, listed for orientation:
Cc1nc2sc3c(N)ncnc3c2c(C)c1Cc1ccccc1: 2
Nc1ncnc2c1sc1nc(C3CC3)cc(C(F)(F)F)c12: 4
Cc1c2c(nc3sc4c(N)ncnc4c13)CCCC2: 0.02
Cc1nc2sc3c(N)ncnc3c2c2c1CCCC2: 0.005
CCOC(=O)c1cc2c(nc1C)sc1c(N)ncnc12: 10

So what's the measured IC50 for this one? `CCc1c(C)nc2sc3c(N)ncnc3c2c1C`
0.01

And `Nc1ncnc2c1sc1ncc(-c3ccccc3)cc12` ?
9

And `Cc1c2c(nc3sc4c(N)ncnc4c13)CCC2` ?
0.05

And `C=CCc1c(C)nc2sc3c(N)ncnc3c2c1C` ?
0.02

And `Nc1ncnc2c1sc1ncccc12` ?
12

And `Cc1nc2sc3c(N)ncnc3c2c2c1CCC2` ?
0.03

And `Cc1nc2sc3c(N)ncnc3c2c(C)c1C` ?
0.04

---

assay: Inhibition of human CDK4/Cyclin D by IMAP assay
pKi: −log10 of the molar value.
Readout type: pKi

So what's the measured pKi for this one? `C=CCc1c(C)nc2sc3c(N)ncnc3c2c1C`
< 5.30

---

biological target: CDC7/DBF4 (Cell division cycle 7-related protein kinase/Activator of S phase kinase) (Homo sapiens); experiment: Inhibition of human recombinant Cdc7/Dbf4 by IMAP assay
Readout type: pKi
Give only the number. pKi is defined as minus log10 of concentration in molar units.

Known pKi results, listed for orientation:
Cc1nc2sc3c(N)ncnc3c2c2c1CCCC2: 9.30
CCc1c(C)nc2sc3c(N)ncnc3c2c1C: 9.00
C=CCc1c(C)nc2sc3c(N)ncnc3c2c1C: 8.70

So what's the measured pKi for this one? `Nc1ncnc2c1sc1nc(C3CC3)cc(C(F)(F)F)c12`
6.40

And `CCOC(=O)c1cc2c(nc1C)sc1c(N)ncnc12` ?
6.00

And `Cc1nc2sc3c(N)ncnc3c2c2c1CCC2` ?
8.52

And `Nc1ncnc2c1sc1ncccc12` ?
5.92

---

target: CDC7/DBF4 (Cell division cycle 7-related protein kinase/Activator of S phase kinase) (Homo sapiens); experiment: Inhibition of human recombinant Cdc7/Dbf4 by HTRF assay
Readout type: IC50

Cc1cc(C)c2c(n1)sc1c(N(C)C)ncnc12: > 30 µM
CNc1ncnc2c1sc1nc(C)cc(C)c12: > 30 µM

# ---- query compound ----
So what's the measured IC50 for this one? `Cc1cc(C)c2c(n1)sc1c(Nc3ccccc3)ncnc12`
> 30 µM

---

The entries below are paired with their reported Ki.
target: CDC7/DBF4 (Cell division cycle 7-related protein kinase/Activator of S phase kinase) (Homo sapiens, UniProt O00311); assay: Inhibition of human recombinant Cdc7/Dbf4 by IMAP assay
Sequence (Q9UBU7 whole entry): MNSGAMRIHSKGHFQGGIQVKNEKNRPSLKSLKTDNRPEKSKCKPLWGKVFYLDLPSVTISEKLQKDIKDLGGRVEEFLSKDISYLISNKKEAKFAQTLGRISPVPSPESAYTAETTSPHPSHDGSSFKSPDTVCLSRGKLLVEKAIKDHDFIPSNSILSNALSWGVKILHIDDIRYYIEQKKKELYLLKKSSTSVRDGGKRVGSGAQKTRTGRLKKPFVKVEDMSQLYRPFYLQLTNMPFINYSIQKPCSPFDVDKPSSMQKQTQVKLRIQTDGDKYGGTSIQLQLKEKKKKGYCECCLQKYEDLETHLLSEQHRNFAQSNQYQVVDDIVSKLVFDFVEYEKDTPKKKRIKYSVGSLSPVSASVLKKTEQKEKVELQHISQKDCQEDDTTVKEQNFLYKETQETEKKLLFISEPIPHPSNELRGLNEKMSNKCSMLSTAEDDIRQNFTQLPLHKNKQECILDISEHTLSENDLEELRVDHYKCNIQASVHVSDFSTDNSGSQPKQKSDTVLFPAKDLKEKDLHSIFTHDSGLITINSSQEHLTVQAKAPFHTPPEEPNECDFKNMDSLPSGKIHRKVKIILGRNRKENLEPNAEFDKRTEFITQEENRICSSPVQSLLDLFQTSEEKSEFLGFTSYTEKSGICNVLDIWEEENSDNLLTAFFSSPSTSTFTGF
Sequence (O00311 whole entry): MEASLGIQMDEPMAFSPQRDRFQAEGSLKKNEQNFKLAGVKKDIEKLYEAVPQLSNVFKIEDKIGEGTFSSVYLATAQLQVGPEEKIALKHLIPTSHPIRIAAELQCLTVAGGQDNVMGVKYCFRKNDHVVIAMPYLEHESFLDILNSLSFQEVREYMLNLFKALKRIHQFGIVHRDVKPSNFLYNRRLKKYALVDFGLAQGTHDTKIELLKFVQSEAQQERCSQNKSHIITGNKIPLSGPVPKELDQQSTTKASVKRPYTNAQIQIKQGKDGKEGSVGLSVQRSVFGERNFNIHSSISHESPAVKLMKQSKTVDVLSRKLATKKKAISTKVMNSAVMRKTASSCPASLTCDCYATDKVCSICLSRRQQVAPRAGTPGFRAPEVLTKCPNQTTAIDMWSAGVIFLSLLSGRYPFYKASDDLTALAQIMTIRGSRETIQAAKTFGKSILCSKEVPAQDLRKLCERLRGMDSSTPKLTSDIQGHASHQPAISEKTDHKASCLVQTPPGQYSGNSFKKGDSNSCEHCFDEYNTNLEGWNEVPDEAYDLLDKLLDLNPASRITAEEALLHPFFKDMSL

Known Ki results, listed for orientation:
Cc1cc(C)c2c(n1)sc1c(N(C)C)ncnc12: > 3 µM
CNc1ncnc2c1sc1nc(C)cc(C)c12: > 3 µM

So what's the measured Ki for this one? `Cc1cc(C)c2c(n1)sc1c(Nc3ccccc3)ncnc12`
> 3 µM

Where do these numbers come from? They come from ChEMBL document CHEMBL1154537.
